Substrate: p-NP-C4
Condition context: pH 7; 37 °C
Experimental readout: kcat (s⁻¹)
Supply the numeric figure in s⁻¹, leaving out any unit text.

protein="unnamed (protein) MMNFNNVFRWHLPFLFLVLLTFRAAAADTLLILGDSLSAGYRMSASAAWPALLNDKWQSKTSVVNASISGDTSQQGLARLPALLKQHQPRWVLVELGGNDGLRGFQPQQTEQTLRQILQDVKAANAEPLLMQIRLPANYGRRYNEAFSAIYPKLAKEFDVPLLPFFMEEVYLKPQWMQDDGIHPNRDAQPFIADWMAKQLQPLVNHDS" experimental_readout=kcat assay_value=15.3
protein="unnamed (protein) MMNFNNVFRWHLPFLFLVLLTFRAAAADTLLILGDSLSAGYRMSASAAWPALLNDKWQSKTSVVNASISADTSQQGLARLPALLKQHQPRWVLVELGGNDGLRGFQPQQTEQTLRQILQDVKAANAEPLLMQIRLPANYGRRYNEAFSAIYPKLAKEFDVPLLPFFMEEVYLKPQWMQDDGIHPNRDAQPFIADWMAKQLQPLVNHDS" experimental_readout=kcat assay_value=3.16
protein="unnamed (protein) MMNFNNVFRWHLPFLFLVLLTFRAAAADTLLILGDSLSAGYRMSASAAWPALLNDKWQSKTSVVNASISGDTSQQGLARLPALLKQHQPRWVLVELGGNDGLRGFQPQQTEQTLRQILQDVKAANAEPLLMQIRLPANYGRRYNEAFSAIYPKLAKEFDVPLLPFFMEEVYLKPQWMQDAGIHPNRDAQPFIADWMAKQLQPLVNHDS" experimental_readout=kcat assay_value=5.98

Next:
If you can, please state the reported kcat value of unnamed (protein) MMNFNNVFRWHLPFLFLVLLTFRAAAADTLLILGDSLSAGYRMSASAAWPALLNDKWQSKTSVVNASISGDTSQQGLARLPALLKQHQPRWVLVELGGNDGLRGFQPQQTEQTLRQILQDVKAANAEPLLMQIRLPANYGRRYNEAFSAIYPKLAKEFDVPLLPFFMEEVYLKPQWMQDDGIAPNRDAQPFIADWMAKQLQPLVNHDS .
0.0093

Values from the PETadex activity labels (doi:10.1042/bj20051645)
